B1: library; a variant is named by its letters at N, in order (parent)
chain: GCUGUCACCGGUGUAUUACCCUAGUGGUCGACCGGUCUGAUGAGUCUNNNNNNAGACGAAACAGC

variants of: B1; assay: normalized RNA/DNA level without ligand (relative to sTRSVctl = 100) (log10 (% of sTRSVctl)); ligand: hypoxanthine (xanthine aptamer); higher = less ribozyme self-cleavage, higher mRNA level; conditions: HEK293T, reporter: mCherry (pCS4076), ligand present: no
Collected normalized RNA/DNA level without ligand (log10) values appear next to each entry.
Respond with the number and no other words.

Field: example entries. Status: answers known.
CCACAG: 1.66
AUGAUG: 1.32
GUUCAC: 1.85
AGCUUC: 1.93
AACGUC: 1.95

Given ACUCCA , respond with its normalized RNA/DNA level without ligand (log10).
1.91

Given CAGAUG , respond with its normalized RNA/DNA level without ligand (log10).
1.81

src = the supplement of paper PMC6757056
